Taken from patent US8106055B2.

Target: bradykinin 1 receptor (B1R) of the rat (Rattus norvegicus)
Construct: expressed in transfected cells; host or cells: CHO K1 cells
Sequence (P97583 whole entry): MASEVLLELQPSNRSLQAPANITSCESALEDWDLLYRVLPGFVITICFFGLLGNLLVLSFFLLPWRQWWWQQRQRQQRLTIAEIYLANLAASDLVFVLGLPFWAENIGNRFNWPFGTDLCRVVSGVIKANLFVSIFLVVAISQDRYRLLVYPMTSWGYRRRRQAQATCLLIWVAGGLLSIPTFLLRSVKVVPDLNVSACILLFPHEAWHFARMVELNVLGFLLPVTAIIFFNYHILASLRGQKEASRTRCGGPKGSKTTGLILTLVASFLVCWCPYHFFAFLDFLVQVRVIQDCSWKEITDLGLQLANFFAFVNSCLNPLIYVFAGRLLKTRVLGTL
Test: Functional investigation on the rat bradykinin 1 receptor (B1R), Ca2+ FLIPR assay in CHO K1 rB1R cells
Format: cell-based
Conditions: CHO-K1, B1R antagonism rat; test substance 10 μM; Ca2+ FLIPR, CHO K1 rB1R cells; read-out: B1R Ant. r [10 μM] % Inhibition
From the text: Functional Investigation on the Human Bradykinin 1 Receptor (B1R) The agonistic or antagonistic action of substances can be determined on the bradykinin 1 receptor (B1R) of the human species and rats with the following assay. In accordance with this assay, the Ca^2+ inflow through the channel is quantified with the aid of a Ca^2=-sensitive dyestuff (type Fluo-4, Molecular Probes Europe BV, Leiden, Holland) in a fluorescent imaging plate reader (FLIPR, Molecular Devices, Sunnyvale, USA). […]
outcome-measure: inhibition at 10 µM (%)
// units = %; emit number, no label

Query :: Answer with the recorded inhibition at 10 µM of COc1cc(C)c(S(=O)(=O)N2CCC(OCC(=O)NCC3CCC(C(c4cccs4)N(C)C)CC3)C2)c(C)c1C (stereo not shown) only.
Result :: 5

Query :: // fetch inhibition at 10 µM given entry CN(CCOCC(=O)NC1CCC(C(c2ccccc2)N2CCCC2)CC1)S(=O)(=O)c1c(Cl)cc(C(F)(F)F)cc1Cl (stereo not shown)
Result :: -11

Query :: Quote inhibition at 10 µM reported for COc1cc(C)c(S(=O)(=O)N(C)CCOCC(=O)NC2CCC(C(c3ccccc3)N3CCN(C)CC3)CC2)c(C)c1 (stereo not shown) please.
Result :: 103

Query :: State, in one line, measured inhibition at 10 µM of COc1cc(C)c(S(=O)(=O)N2CCC(OCC(=O)NC3CCC(C(c4ccccc4)N4CCCC4)CC3)C2)c(C)c1 (stereo not shown)
Result :: 67

====

Target: human bradykinin 1 receptor (B1R) (Homo sapiens, UniProt P46663)
Construct: expressed in transfected cells; host or cells: CHO K1 cells
Sequence (P46663 whole entry): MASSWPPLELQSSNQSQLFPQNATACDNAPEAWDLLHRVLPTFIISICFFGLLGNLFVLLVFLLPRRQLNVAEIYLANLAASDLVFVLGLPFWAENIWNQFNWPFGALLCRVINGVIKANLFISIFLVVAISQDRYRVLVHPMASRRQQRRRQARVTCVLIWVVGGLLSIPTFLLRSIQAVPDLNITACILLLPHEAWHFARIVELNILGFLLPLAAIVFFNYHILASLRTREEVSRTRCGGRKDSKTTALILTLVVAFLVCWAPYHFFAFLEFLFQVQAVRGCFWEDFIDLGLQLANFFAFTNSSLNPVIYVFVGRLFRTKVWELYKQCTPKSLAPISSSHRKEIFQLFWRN
Assay: Functional investigation on the human bradykinin 1 receptor (B1R), Ca2+ FLIPR assay in CHO K1 hB1R cells
Assay type: cell-based
Conditions: B1R antagonism human; test substance 10 μM; Ca2+ FLIPR, CHO K1 hB1R cells
outcome-measure: B1R Ant. h [10 μM] % Inhibition (%)
Numeric only. Scale: %

Known results for molecules:
Query :: Respond only with B1R Ant. h [10 μM] % Inhibition recorded for CN(CCOCC(=O)NC1CCC(C(c2ccccc2)N2CCOCC2)CC1)S(=O)(=O)c1c(Cl)cc(Cl)cc1Cl (stereo not shown) [Example 607]
Result :: 12

Query :: Write down B1R Ant. h [10 μM] % Inhibition measured for item COc1ccc(S(=O)(=O)N(C)CCOCC(=O)NCCC2CCC(C(c3cccc(F)c3)N(C)C)CC2)cc1OC (stereo not shown)
Result :: −7

Next:
Query :: Quick one: give measured B1R Ant. h [10 μM] % Inhibition for CN(C)C(c1cccc(F)c1)C1CCC(CNC(=O)COCCN(Cc2ccccc2)S(=O)(=O)c2ccccc2)CC1 (stereo not shown)
Result :: −1

Query :: Give recorded B1R Ant. h [10 μM] % Inhibition. COc1cc(C)c(S(=O)(=O)N(C)CCOCC(=O)NC2CCC(C(c3ccc(F)cc3)N(C)C)CC2)c(C)c1 (stereo not shown)
Result :: 104

Query :: Identify B1R Ant. h [10 μM] % Inhibition associated with the molecule CN(C)C(c1ccc(Cl)cc1)C1CCC(CNC(=O)COC2CCN(S(=O)(=O)c3ccccc3)C2)CC1 (stereo not shown)
Result :: −15

Query :: Determine from records and report B1R Ant. h [10 μM] % Inhibition for CN(C)C(c1ccc(F)cc1)C1CCC(CCNC(=O)COC2CCN(S(=O)(=O)c3ccccc3)C2)CC1 (stereo not shown)
Result :: −18

Query :: For the molecule COc1cc(C)c(S(=O)(=O)N2CCC(OCC(=O)NCC3CCC(C(c4ccc(Cl)cc4)N(C)C)CC3)CC2)c(C)c1C (stereo not shown) , give its reported B1R Ant. h [10 μM] % Inhibition.
Result :: 17
